- protocol-text: AUC in mouse at 10 mg/kg, po
- Type: ADME, organism-based
- Design: dose 10 mg/kg, route oral
- condition-notes: plasma
# maps each entry to its AUC
outcome-measure: AUC (µM·h)

- Cc1n[nH]c2ccc(-c3cncc(OC[C@@H](N)Cc4ccccc4)c3)cc12: 2
- Cc1n[nH]c2ccc(-c3cncc(OC[C@@H](N)Cc4ccc(Cl)c(F)c4)c3)cc12: 2.3
- Cc1n[nH]c2cnc(-c3cncc(OC[C@@H](N)Cc4cccc(C(F)(F)F)c4)c3)cc12: 1.7

* * *

- target-entity: Voltage-gated inwardly rectifying potassium channel KCNH2 (Homo sapiens)
- Sequence (Q12809 whole entry): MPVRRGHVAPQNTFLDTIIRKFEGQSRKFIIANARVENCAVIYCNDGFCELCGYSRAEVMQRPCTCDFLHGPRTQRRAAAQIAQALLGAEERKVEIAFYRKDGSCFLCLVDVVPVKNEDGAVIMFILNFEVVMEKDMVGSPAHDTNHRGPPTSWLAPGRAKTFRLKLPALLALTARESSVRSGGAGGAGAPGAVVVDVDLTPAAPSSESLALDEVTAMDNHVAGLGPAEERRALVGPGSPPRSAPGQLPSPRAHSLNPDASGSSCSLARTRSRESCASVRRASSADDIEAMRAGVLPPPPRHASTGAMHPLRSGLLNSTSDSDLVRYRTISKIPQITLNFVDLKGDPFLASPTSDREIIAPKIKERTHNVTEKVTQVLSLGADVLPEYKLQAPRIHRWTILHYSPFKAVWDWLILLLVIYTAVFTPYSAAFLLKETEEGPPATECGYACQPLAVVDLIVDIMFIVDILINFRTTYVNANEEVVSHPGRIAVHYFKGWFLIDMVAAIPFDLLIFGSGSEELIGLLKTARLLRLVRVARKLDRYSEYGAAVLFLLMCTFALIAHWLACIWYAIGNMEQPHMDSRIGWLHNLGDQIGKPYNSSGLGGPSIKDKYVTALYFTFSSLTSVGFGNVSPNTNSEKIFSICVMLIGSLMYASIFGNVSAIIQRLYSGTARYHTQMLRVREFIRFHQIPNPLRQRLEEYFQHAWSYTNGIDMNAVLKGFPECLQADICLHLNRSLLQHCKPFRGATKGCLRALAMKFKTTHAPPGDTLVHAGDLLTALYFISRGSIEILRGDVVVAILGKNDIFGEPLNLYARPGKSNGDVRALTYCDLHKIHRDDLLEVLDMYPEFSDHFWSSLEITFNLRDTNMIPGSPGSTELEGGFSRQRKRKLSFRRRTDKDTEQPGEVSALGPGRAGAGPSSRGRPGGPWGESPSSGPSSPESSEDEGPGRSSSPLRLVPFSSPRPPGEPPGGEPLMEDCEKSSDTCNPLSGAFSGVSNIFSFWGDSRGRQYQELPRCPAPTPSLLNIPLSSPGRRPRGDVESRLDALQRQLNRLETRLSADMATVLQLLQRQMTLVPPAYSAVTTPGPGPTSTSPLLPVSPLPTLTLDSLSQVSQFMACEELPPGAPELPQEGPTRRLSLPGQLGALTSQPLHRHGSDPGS
- protocol-text: Inhibition of hERG by patch clamp assay
outcome-measure: IC50 (µM)

- Cc1n[nH]c2ccc(-c3cncc(OC[C@@H](N)Cc4ccccc4)c3)cc12: 13.4
